# test_name: In vivo pharmacokinetic evaluation in mice by intravenous injection and oral administration
# measurement_conditions: mouse; intravenous administration 1 mg/kg, male ICR mice, plasma
quantity: half-life (min)
Give bare numbers, in min.

Query half-life for C=CC(=O)N1CCN(c2nc(=O)n(-c3c(C)ccnc3C(C)C)c3nc(-c4c(O)cccc4F)c(F)cc23)[C@@H](C)C1
15.6

###

# Test system: NCI-H358 cells expressing KRAS-G12C
# test_name: Growth inhibition of tumor cell line expressing KRAS-G12C (Cell Titer Glo), NCI-H358
# Assay type: cell-based
# measurement_conditions: NCI-H358, 72 hours
Exercise: for every item that follows, state its recorded GI50.

Example entries begin here.
- compound: "C=CC(=O)N1CC2COc3c(c4cc(Cl)c(-c5c(O)cccc5F)c(F)c4n(-c4c(C)ccnc4C(C)C)c3=O)N2CC1C (single isomer, unassigned) [Compound 18B-2]"
  result: "149 nM"
- compound: "C=CC(=O)N1C[C@@H]2C(=O)N(C)c3c(c4cc(Cl)c(-c5c(O)cccc5F)c(F)c4n(-c4c(C)ccnc4C(C)C)c3=O)N2C[C@H]1C [Compound 23A-2]"
  result: "3 nM"

Let us move to another entry and its GI50.
Query GI50 for C=CC(=O)N1C[C@@H]2COc3c(c4cc(F)c(-c5c(O)cccc5F)c(F)c4n(-c4c(C)ccnc4C(C)C)c3=O)N2C[C@H]1C [Compound 3B]
8 nM
